- Test system: A498 renal
- Procedure summary: NCI tumour cell line growth inhibition, 48 h
Endpoint: log10(TGI) (log10 of the value in µM)
The common logarithm of TGI in µM is what is listed.

Answered cases to consult:
{"columns": ["Compound", "Measured result"],
 "data": [
  ["COc1ccc(-c2cc(N3CCN(c4ccccc4)CC3)c(C#N)c(=O)o2)cc1", 1.81],
  ["CC[C@@H](/C=C\\CCC1(C[C@H](O)CCC=C(C)C)OCCO1)O[Si](C(C)C)(C(C)C)C(C)C", 1.91],
  ["COCCOCCOC1=C(Cl)C(=O)c2c(O)ccc(O)c2C1=O", 1.14]
]}

**Q:** Fill in log10(TGI) for record "Cc1cccc(NC(=S)Nc2ccccc2Cl)n1"
**A:** 1.81

**Q:** Identify measured log10(TGI) associated with "CSc1ccc(/C=C2\N=C(c3ccccc3)N(c3nc4ccc(Sc5ccccc5)cc4[nH]3)C2=O)cc1"
**A:** 1.79

**Q:** Fill in reported log10(TGI) for this entry: Cc1cc(C(C#N)c2ccc(Cl)cc2)c(Cl)cc1NC(=O)c1cc(I)cc(I)c1O (stereo unspecified)
**A:** 1.48

**Q:** Give recorded log10(TGI). "OCCCCCCOc1ccc(-c2cc(-c3ccccn3)nc(-c3ccccn3)c2)cc1"
**A:** 0.76

**Q:** Give a short answer stating reported log10(TGI) for "Brc1ccc2[nH]cc(-c3nc(-c4c[nH]c5ccccc45)cs3)c2c1" .
**A:** 0.93

**Q:** Give the reported value of log10(TGI) for this record: "O=C1C(Cl)=C(Nc2cccc(O)c2)C(=O)N1c1cc(Cl)c(Cl)cc1Cl"
**A:** 0.89

**Q:** For the compound "CCN(Cc1ccccc1OC)c1ccc(CO)c(Cl)c1" , report log10(TGI).
**A:** -0.89
